The reported numbers originate from patent US20180009892A1.

Biological target: T1, human ROR1 extracellular domain (ECD) protein (human, UniProt Q01973 30-406)
T1 construct: also called hROR1-ECD; human ROR1-ECD
T1 sequence (Q01973 30-406 limits assumed): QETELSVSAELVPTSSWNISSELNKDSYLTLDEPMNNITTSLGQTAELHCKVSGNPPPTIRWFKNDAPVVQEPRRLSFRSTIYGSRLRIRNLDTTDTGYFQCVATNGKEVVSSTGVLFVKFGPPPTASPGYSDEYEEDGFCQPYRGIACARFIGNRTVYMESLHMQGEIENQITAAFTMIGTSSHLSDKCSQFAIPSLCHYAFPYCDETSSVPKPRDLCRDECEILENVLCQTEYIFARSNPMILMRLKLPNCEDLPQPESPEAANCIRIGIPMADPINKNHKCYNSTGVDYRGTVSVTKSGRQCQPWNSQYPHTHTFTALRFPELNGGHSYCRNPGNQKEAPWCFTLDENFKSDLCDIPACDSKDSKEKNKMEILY
Test: competitive phage ELISA: soluble ROR1 against ROR1-coated plate
Label MET when IC50 is strictly below 5 nM; otherwise label NOT MET.

Answered examples (4):
Check if IC50 falls below 5 nM for P601-119 (scFv, V domains shown) VH: QVQLVQSGGGLVKPGGSLRLSCAASGFTFGTYSMNWVRQAPGKGLEWVSSISSSSSYIYYADSVKGRFTISRDNAKNSLYLQMNSLRAEDTAVYYCARGLGGWTHDAFDIWGQGTTVTVSS VL: QSALTQPASVSASPGQSITISCTGTSSDVGGYNYVTWYQQHPGKAPKLMIYDVSKRPSGVLDRFSGSKSGNTASLTISGLQAEDEADYFCSSYTSSSTLVFGGGTKLTVLG .
NOT MET

Given the entry P601-56 (scFv, V domains shown) VH: QLQLQESGPGLVKPSETLSLTCTVSGGSISSSSYYWGWIRQPPGKGLEWIGSIYYSGSTYYNPSLKSRVTISVDTSKNQFSLKLGSVTAADTAVYYCARHDGTDAFDIWGQGTTVTVSS VL: QSVLTQPASVSGSPGQSITISCTGTSSDFGDYDYVSWYQQHPGKAPKLMIYDVSDRPSGVSNRFSGSKSGNTASLTISGLQAEDEADYFCSSLTTSSTLVFGGGTKLTVL , would its reported IC50 be below 5 nM?
MET

Is IC50 strictly under 5 nM for the entry P601-130 (scFv, V domains shown) VH: EVQLVETGGGLVKPGGSLRLSCEASGFSLSSYSMNWVRQAPGKGLEWVSSISSSSTHIYYADSLKGRFTISRDNAKNSLFLQMDNLRAEDTAVYYCARATIGFDYWGQGTLVTVSS VL: QSVLTQPPSVSGAPGQRVTISCTGSSSNIGAGYDVHWYQQLPGTAPKLLIYGNSNRPSGVPDRFSGSKSGTSASLAITGLQAEDEADYYCQSYDSSLSGYVFGTGTKLTVL ?
MET

Strictly below 5 nM in IC50? P601-128 (scFv, V domains shown) VH: EVQLVQSGAEVKKPGESLKISCKGSGYSFSRYWIGWVRQMPGKGLEWMGIIYPRDSDTRYSPSFQGQVTISADKSISTAYLQWSSLKASDTAMYYCATPVVTAGAFDIWGQGTMVTVSS VL: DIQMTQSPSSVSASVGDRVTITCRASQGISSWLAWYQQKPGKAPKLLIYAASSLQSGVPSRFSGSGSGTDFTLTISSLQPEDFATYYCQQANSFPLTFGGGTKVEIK
NOT MET

Others:
Report whether reported IC50 is lower than 5 nM (strictly) for P601-110 (scFv, V domains shown) VH: QVQLVQSGGDLVQPGGSLRLSCAASGFTFSSYSMNWVRQAPGKGLEWVSSISSSSSYIYYADSVKGRFTISRDNAKNSLYLQMNSLRAEDTAVYYCARGLGGWTHDAFDIWGQGTTVTVSS VL: QSALTQPASVSGSPGQSITLSCTGTSSDVGGYNYVSWYQQHPGNGPKLIIYDVTKRPSGVSNRFSGSKSGNTAYLTISGLQAEDEADYYCASYTRSTTLVFGGGTKLTVL
MET
